# target_desc: Ubiquitin carboxyl-terminal hydrolase isozyme L1 (Homo sapiens) (UniProt P09936)
# Sequence (P09936 whole entry, looked up): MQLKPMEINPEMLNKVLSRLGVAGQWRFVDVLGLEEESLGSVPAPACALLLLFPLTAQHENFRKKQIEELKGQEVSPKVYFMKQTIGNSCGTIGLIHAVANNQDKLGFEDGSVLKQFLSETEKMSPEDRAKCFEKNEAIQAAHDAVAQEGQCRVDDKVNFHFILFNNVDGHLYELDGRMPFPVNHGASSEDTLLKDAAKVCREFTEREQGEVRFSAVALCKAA
# experiment_notes: Inhibition of UCHL1 (unknown origin) using SRK59 as fluorescent probe at 2 uM preincubated for 1 hr followed by SRK59 addition for 30 mins by Gel-based competition assay
# run_conditions: time 90.0 min
measurement_type: inhibition

Worked cases, inhibition given:
[
  {
    "compound": "N#CN1CC[C@H](C(=O)Nc2nc3c(s2)CN(C(=O)CCCCBr)CC3)C1",
    "target_desc": "Ubiquitin carboxyl-terminal hydrolase isozyme L1 (Homo sapiens) (UniProt P09936)",
    "measurement_type": "inhibition",
    "endpoint_result": "100%"
  },
  {
    "compound": "CN1C(=O)CC(C(=O)N2CCc3nc(NC(=O)[C@H]4CCN(C#N)C4)sc3C2)[C@@H]1c1cccnc1 (some centres undefined)",
    "target_desc": "Ubiquitin carboxyl-terminal hydrolase isozyme L1 (Homo sapiens) (UniProt P09936)",
    "measurement_type": "inhibition",
    "endpoint_result": "100%"
  }
]

Lab note: next compound to report on.
Kindly note the recorded inhibition for "N#CN1CC[C@H](C(=O)Nc2nc3c(s2)CN(C(=O)Cc2ccncc2)CC3)C1" , which is 100%

---

# target_desc: UniProt:Q99497
# Sequence (Q99497 whole entry): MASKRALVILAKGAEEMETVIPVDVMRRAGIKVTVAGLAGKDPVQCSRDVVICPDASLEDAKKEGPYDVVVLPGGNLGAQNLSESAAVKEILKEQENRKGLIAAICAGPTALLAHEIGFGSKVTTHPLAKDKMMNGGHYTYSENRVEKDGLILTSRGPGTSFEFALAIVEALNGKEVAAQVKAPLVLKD
# experiment_notes: Inhibition of N-terminal GST-tagged human recombinant PARK7 expressed in Escherichia coli BL21(DE3)Rosetta2 cells using SRK59 as fluorescent probe at 2 uM preincubated for 1 hr followed by SRK59 addition for 30 mins by Gel-based competition assay
# run_conditions: time 90.0 min
Activity calls are given as the source filed them. The calls are words filed in the database; no cut-off is given here.

[
  {
    "compound": "N#CN1CC[C@H](C(=O)Nc2nc3c(s2)CN(C(=O)Cc2ccncc2)CC3)C1",
    "target_desc": "UniProt:Q99497",
    "inhibition": "Active"
  },
  {
    "compound": "N#CN1CC[C@H](C(=O)Nc2nc3c(s2)CN(C(=O)CCCCBr)CC3)C1",
    "target_desc": "UniProt:Q99497",
    "inhibition": "Active"
  },
  {
    "compound": "CN1C(=O)CC(C(=O)N2CCc3nc(NC(=O)[C@H]4CCN(C#N)C4)sc3C2)[C@@H]1c1cccnc1 (some centres undefined)",
    "target_desc": "UniProt:Q99497",
    "inhibition": "Active"
  },
  {
    "compound": "N#CN1CC[C@@H](C(=O)Nc2nc3c(s2)CN(C(=O)CN=[N+]=[N-])CC3)C1",
    "target_desc": "UniProt:Q99497",
    "inhibition": "100%"
  }
]
